The reported measurements were obtained from PubChem BioAssay AID1996.

# conditionParameters: buffer; pH 7.4; 200.0 µM
Classification field: Yes = solubility kinetic at or over 9 µg/mL; No = solubility kinetic under 9 µg/mL.

Study these solved cases before continuing.
> print(dat)
                                   compound  assignedclass
1    COC(=O)C[N+](C)(C)C/C=C\c1ccccc1.[Br-]            Yes
2            O=C(O)c1cnc2[nH]c3ccccc3n2c1=O            Yes
3  CCO.C[C@H]1c2cccc(O)c2C(O)=C2C(=O)[C@]3(O)C(O)=C(C(N)=O)C(=O)[C@@H](N(C)C)[C@@H]3[C@@H](O)[C@@H]21.Cl.O            Yes

Prompt: Could you verify whether the entry O=C(CNC(=O)c1ccccc1F)N/N=C/c1cccs1 shows solubility kinetic of no less than 9 µg/mL?
Completion: Yes

Prompt: Could you verify whether the entry Cc1ccc(NC(=O)CC2(CC(=O)O)CCCC2)cc1 shows solubility kinetic of no less than 9 µg/mL?
Completion: Yes

Prompt: Could you verify whether the entry COc1cccc(Nc2c(Nc3cccc(OC)c3)c(=O)c2=O)c1 shows solubility kinetic of no less than 9 µg/mL?
Completion: No

Prompt: Could you verify whether the entry O=S(=O)(Nc1cccc(F)c1)c1cccc2nsnc12 shows solubility kinetic of no less than 9 µg/mL?
Completion: Yes

Prompt: Could you verify whether the entry O=C(OCCCOC(=O)c1cc[n+]([O-])cc1)c1cc[n+]([O-])cc1 shows solubility kinetic of no less than 9 µg/mL?
Completion: Yes

Prompt: Could you verify whether the entry COc1ccc(CCC(=O)NCCOc2ccc(C)cc2)cc1 shows solubility kinetic of no less than 9 µg/mL?
Completion: Yes

Prompt: Could you verify whether the entry COc1ccc(CNCc2ccncc2)c(OC)c1.Cl shows solubility kinetic of no less than 9 µg/mL?
Completion: Yes

----------
# conditionParameters: buffer; pH 7.4; 200.0 µM
solubility kinetic values by entry
State the answer as a number, implicitly in µg/mL.

Worked examples follow.
> print(dat)
                                inputsmiles          resulttype  reading
1        O=C(COC(=O)Cc1ccc(Br)cc1)NCc1cccs1  solubility kinetic     11.8
2         COc1ccc(-c2[nH]c3ccccc3c2SCCN)cc1  solubility kinetic     31.9
3     CC(=O)NCCNC(=O)c1ccc(-n2c(C)ccc2C)cc1  solubility kinetic     35.3
4  CCc1ccc(OCC(=O)Oc2ccc([N+](=O)[O-])cc2)cc1  solubility kinetic     29.4

Next compound, please.
Prompt: Requested read-out: solubility kinetic. Entry: Cc1ccc(NC(=O)/C(=C\c2ccccc2)NC(=O)c2ccco2)cc1
Completion: 4.7

----------
# conditionParameters: buffer; pH 7.4; 200.0 µM
solubility kinetic values by entry
State the answer as a number, implicitly in µg/mL.

Worked examples follow.
> print(dat)
                                   compound          resulttype  reading
1      COc1ccc(NC(=O)CSc2ncnc3sc(C)cc23)cc1  solubility kinetic      1.2
2              N#Cc1ccc(Oc2c(Cl)cncc2Cl)cc1  solubility kinetic     23.2
3         S=C(NCCc1ccccn1)Nc1cc(Cl)cc(Cl)c1  solubility kinetic       19
4  O=C(O)/C=C\C(=O)Nc1ccccc1N1CCN(c2ccccc2)CC1  solubility kinetic       52
5              Cc1cc(=O)[nH]c(NCc2ccccc2)n1  solubility kinetic     30.6

Prompt: Requested read-out: solubility kinetic. Entry: O=C(COC(=O)c1ccccc1Cl)Nc1ccc2[nH]c(=O)[nH]c2c1
Completion: 23.3

Prompt: Requested read-out: solubility kinetic. Entry: O=C(CSc1cccc2cccnc12)Nc1ccccc1F
Completion: 7.3

Prompt: Requested read-out: solubility kinetic. Entry: COCCNc1ncnc2c1[nH]c1ccccc12
Completion: 36.2

Prompt: Requested read-out: solubility kinetic. Entry: Cc1ccc(NC(=O)C(Cc2ccccc2)n2cccc2)cc1 (stereo not given)
Completion: 1.9

Prompt: Requested read-out: solubility kinetic. Entry: Cc1ccc(NC(=O)CCC(=O)c2ccc(Cl)s2)nc1
Completion: 7.5

Prompt: Requested read-out: solubility kinetic. Entry: CC(C)(C)N1C(=O)NC(=O)/C(=C\c2ccc3c(c2)CCN3CCCCl)C1=O
Completion: 38

Prompt: Requested read-out: solubility kinetic. Entry: N#C/C(=C\c1ccc[nH]1)C(=O)Nc1ccccc1[N+](=O)[O-]
Completion: 0.4

Prompt: Requested read-out: solubility kinetic. Entry: O=C(N/C(=C/c1cccc([N+](=O)[O-])c1)C(=O)N1CCCC1)c1ccccc1
Completion: 51.9

Prompt: Requested read-out: solubility kinetic. Entry: C=CCON/C(CCC)=C1\C(=O)CC(C)(C)CC1=NC
Completion: 34.9

Prompt: Requested read-out: solubility kinetic. Entry: O=S(=O)(/N=C(/Nc1nccs1)c1ccc(F)cc1)c1ccccc1
Completion: 5

Prompt: Requested read-out: solubility kinetic. Entry: CCOc1ccc(Br)cc1S(=O)(=O)Nc1ccc(S(=O)(=O)Nc2cc(C)on2)cc1
Completion: 9.3

----------
# conditionParameters: buffer; pH 7.4; 200.0 µM
resultType: solubility kinetic

Worked examples follow.
> print(dat)
                                   compound       reading
1  O=C1NC(=O)/C(=C/c2ccc(-c3cc(C(=O)O)ccc3Cl)o2)S1  > 52.5 µg/mL
2  CCN(C(=O)CN1C(=S)NC(C)(C)CC1C)c1ccc(C)c(C)c1 (stereo unspecified)  > 52.1 µg/mL
3  COCCNC(=O)C1Cc2c(ccc3ccccc23)O1 (stereo unspecified)  > 40.7 µg/mL
4  CN(C(=O)c1ccc(N2CCOCC2)c([N+](=O)[O-])c1)C1CCCCC1  > 52.1 µg/mL
5                    Cc1cc(=O)n(C)c2ccccc12    > 26 µg/mL

Next compound, please.
Prompt: Requested read-out: solubility kinetic. Entry: Cc1[nH]c2ccc(C(=O)N3CCN(C)CC3)cc2c1C
Completion: > 40.7 µg/mL

----------
# conditionParameters: buffer; pH 7.4; 200.0 µM
Classification field: yes (1) = solubility kinetic at or over 20 µg/mL; no (0) = solubility kinetic under 20 µg/mL.

Study these solved cases before continuing.
> print(dat)
                                   compound  assignedclass
1     O=S(=O)(Nc1ccc2c(c1)OCCO2)c1cccc(F)c1        yes (1)
2                O=C(O)c1ccc(OCC(F)(F)F)nc1        yes (1)
3               Cc1cc(-c2onc(C)c2C(N)=O)no1        yes (1)
4  Cc1cccc(Nc2nc(NCc3ccco3)nc(N)c2[N+](=O)[O-])c1         no (0)

Prompt: Could you verify whether the entry CC(C)Cc1ccc(C(C)C(N)=Nc2ccc(O)cc2)cc1.Cl (stereo unspecified) shows solubility kinetic of no less than 20 µg/mL?
Completion: yes (1)

Prompt: Could you verify whether the entry O=[N+]([O-])c1cc(S(=O)(=O)N2CCOCC2)ccc1NS(=O)(=O)c1ccccc1 shows solubility kinetic of no less than 20 µg/mL?
Completion: yes (1)

Prompt: Could you verify whether the entry CC(=O)Nc1ccc(NC(=O)COC(=O)c2ccc(S(=O)(=O)NCc3ccco3)cc2)cc1 shows solubility kinetic of no less than 20 µg/mL?
Completion: no (0)

Prompt: Could you verify whether the entry CN1C(=O)N(C)C2(C)CC1(C)N(C)C(=O)N2C shows solubility kinetic of no less than 20 µg/mL?
Completion: yes (1)

Prompt: Could you verify whether the entry O=C(c1ccc(F)cc1F)N1CCCc2ccccc21 shows solubility kinetic of no less than 20 µg/mL?
Completion: yes (1)

Prompt: Could you verify whether the entry COc1ccccc1NS(=O)(=O)c1cc(N)ccc1N1CCCC1 shows solubility kinetic of no less than 20 µg/mL?
Completion: yes (1)

Prompt: Could you verify whether the entry COCCCn1c(=O)c2ccccc2n(Cc2ccc(C)cc2)c1=O shows solubility kinetic of no less than 20 µg/mL?
Completion: no (0)

Prompt: Could you verify whether the entry Nc1nc(CCl)nc(Nc2cccc3ccccc23)n1 shows solubility kinetic of no less than 20 µg/mL?
Completion: yes (1)

Prompt: Could you verify whether the entry CC(=O)N1CCN(c2nnc(-c3ccccc3)c3ccccc23)CC1 shows solubility kinetic of no less than 20 µg/mL?
Completion: yes (1)

Prompt: Could you verify whether the entry CN=c1sc(C(=O)Nc2ccccc2)c(C)n1C shows solubility kinetic of no less than 20 µg/mL?
Completion: yes (1)

Prompt: Could you verify whether the entry CCCc1cc(=O)[nH]c(SCC(=O)N2CCC(C)CC2)n1 shows solubility kinetic of no less than 20 µg/mL?
Completion: yes (1)

Prompt: Could you verify whether the entry O=C(NCc1ccc2c(c1)OCO2)NC12CC3CC(CC(C3)C1)C2 shows solubility kinetic of no less than 20 µg/mL?
Completion: no (0)

Prompt: Could you verify whether the entry Cn1cnc([N+](=O)[O-])c1Cl shows solubility kinetic of no less than 20 µg/mL?
Completion: yes (1)

Prompt: Could you verify whether the entry CN(Cc1cc2ccccc2[nH]c1=O)C(=O)COc1ccccc1 shows solubility kinetic of no less than 20 µg/mL?
Completion: no (0)

Prompt: Could you verify whether the entry COc1cccc(C(O)c2cnc(C(C)C)n2C)c1 (stereo unspecified) shows solubility kinetic of no less than 20 µg/mL?
Completion: yes (1)

Prompt: Could you verify whether the entry CCCC(=O)Nc1ccc2c(c1)nc1n2CCN(CCOC)C1 shows solubility kinetic of no less than 20 µg/mL?
Completion: yes (1)

Prompt: Could you verify whether the entry COC(=O)c1ccc(C(=O)OC)c(NC(=O)/C=C/C(=O)O)c1 shows solubility kinetic of no less than 20 µg/mL?
Completion: yes (1)

Prompt: Could you verify whether the entry COc1ccc(C(=O)c2sc(Nc3ccccc3)nc2C)cc1 shows solubility kinetic of no less than 20 µg/mL?
Completion: no (0)

Prompt: Could you verify whether the entry CC#CC(=O)NC1CCCN(C2Cc3ccccc3C2)C1 (stereo unspecified) shows solubility kinetic of no less than 20 µg/mL?
Completion: yes (1)
